- tested.target: Human recombinant MMP-9 (Homo sapiens)
- Construct: made in house; host or cells: MMP-9-transfected HT1080 cells (spent media)
- Sequence (P14780 107-707 limits assumed): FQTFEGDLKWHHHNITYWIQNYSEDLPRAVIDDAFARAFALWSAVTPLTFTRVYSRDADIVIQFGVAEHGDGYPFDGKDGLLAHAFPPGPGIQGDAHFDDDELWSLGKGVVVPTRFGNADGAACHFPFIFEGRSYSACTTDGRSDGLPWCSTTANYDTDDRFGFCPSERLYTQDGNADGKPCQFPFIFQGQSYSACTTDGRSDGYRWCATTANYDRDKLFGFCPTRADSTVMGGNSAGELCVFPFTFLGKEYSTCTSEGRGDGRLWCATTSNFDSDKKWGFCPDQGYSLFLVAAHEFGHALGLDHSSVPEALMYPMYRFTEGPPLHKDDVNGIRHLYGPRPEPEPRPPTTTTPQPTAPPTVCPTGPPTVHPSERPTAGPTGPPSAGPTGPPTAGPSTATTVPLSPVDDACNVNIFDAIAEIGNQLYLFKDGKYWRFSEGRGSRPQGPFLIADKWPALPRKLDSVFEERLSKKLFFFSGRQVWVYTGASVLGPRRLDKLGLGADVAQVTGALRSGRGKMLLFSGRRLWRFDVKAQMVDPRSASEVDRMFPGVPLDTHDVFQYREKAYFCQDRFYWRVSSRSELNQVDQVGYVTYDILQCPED
- run.description: In vitro MMP inhibition analysis (fluorogenic peptide substrate), MMP-9
- Type: biochemical
- conditions.used: human recombinant enzyme; 4 μM substrate (A); apparent Ki without substrate correction
pKi: −log10 of the molar value.
parameter: pKi

molecule	readout.value
O=C(NO)C1(S(=O)(=O)c2ccc3nc(-c4ccc(Cl)s4)sc3c2)CCOCC1 [Example 59]	8.29
CCCc1ccc(-c2nc3ccc(S(=O)(=O)C4(C(=O)NO)CCOCC4)cc3s2)cc1 [Example 53]	7.89
CN(C(=O)Cc1ccc(-c2ccc(S(=O)(=O)C3(C(=O)NO)CCOCC3)cn2)cc1)c1ccc(OC(F)(F)F)cc1 [Example 75]	9.80
CC(C)Cc1ncc(-c2nc3ccc(S(=O)(=O)C4(C(=O)NO)CCOCC4)cc3s2)s1 [Example 54]	7.00
CCCCNC(=O)c1ccc(-c2ccc(S(=O)(=O)C3(C(=O)NO)CCOCC3)cn2)cc1 [Example 76]	6.37
CCc1ccc(-c2nc3ccc(S(=O)(=O)C4(C(=O)NO)CCOCC4)cc3s2)cc1 [Example 58]	8.97
CCCCCc1ccc(-c2ccc(S(=O)(=O)C3(C(=O)NO)CCOCC3)cn2)cc1 [Example 45]	8.05
O=C(NO)C1(S(=O)(=O)c2ccc3nc(-c4ccc(F)c(F)c4)sc3c2)CCOCC1 [Example 60]	7.85
O=C(NO)C1(S(=O)(=O)c2ccc(-c3ccc(OC(F)(F)C(F)F)cc3)s2)CCOCC1 [Example 44]	9.45
O=C(NO)C1(S(=O)(=O)c2ccc(-c3ccc(CCC(F)(F)C(F)(F)F)cn3)s2)CCOCC1 [Example 49]	7.99
CN(C(=O)c1ccc(-c2ccc(S(=O)(=O)C3(C(=O)NO)CCOCC3)cn2)cc1)c1ccccc1 [Example 78]	5.89
O=C(NO)C1(S(=O)(=O)c2ccc(-c3ccc(C(F)(F)F)cn3)s2)CCOCC1 [Example 50]	6.88
O=C(NO)C1(S(=O)(=O)c2ccc(-c3ccc(OC(F)(F)C(F)F)cc3)nc2)CCOCC1 [Example 48]	8.97
